Target: cyBCMA
Experiment: Kinetics and affinity of cyBCMA/human IgG interactions by SPR (Bio-Rad Proteon XPR36)
Type: binding, cynomolgus
Conditions: 37° C.
The entries below come with measured kd (1/s) cyBCMA @37° C. values attached.
Value expressed in s⁻¹; do not type the unit.

molecule	unit_name	kd (1/s) cyBCMA @37° C.
L3.PY/L1.PH/H3.TAQ: anti-BCMA antibody (antibody, V domains shown) VH: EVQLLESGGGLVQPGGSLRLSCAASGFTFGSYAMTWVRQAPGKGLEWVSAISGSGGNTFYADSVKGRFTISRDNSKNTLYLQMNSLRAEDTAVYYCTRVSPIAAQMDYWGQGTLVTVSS VL: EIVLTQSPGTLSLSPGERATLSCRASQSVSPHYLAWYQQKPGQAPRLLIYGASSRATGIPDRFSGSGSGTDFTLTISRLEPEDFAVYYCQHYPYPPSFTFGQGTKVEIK	s⁻¹	0.0032
L3.PY/L1.AH/H3.TAQ: anti-BCMA antibody (antibody, V domains shown) VH: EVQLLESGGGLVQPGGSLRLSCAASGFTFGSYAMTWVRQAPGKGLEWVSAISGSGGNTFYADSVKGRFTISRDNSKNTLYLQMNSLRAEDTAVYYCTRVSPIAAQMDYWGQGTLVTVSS VL: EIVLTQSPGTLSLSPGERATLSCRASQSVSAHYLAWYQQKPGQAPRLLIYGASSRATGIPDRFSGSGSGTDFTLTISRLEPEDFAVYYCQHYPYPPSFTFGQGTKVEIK	s⁻¹	0.00302
L3.PY/H3.AE: anti-BCMA antibody (antibody, V domains shown) VH: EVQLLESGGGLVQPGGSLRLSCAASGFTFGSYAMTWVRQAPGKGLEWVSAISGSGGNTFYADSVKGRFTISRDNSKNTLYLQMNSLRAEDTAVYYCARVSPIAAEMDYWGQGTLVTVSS VL: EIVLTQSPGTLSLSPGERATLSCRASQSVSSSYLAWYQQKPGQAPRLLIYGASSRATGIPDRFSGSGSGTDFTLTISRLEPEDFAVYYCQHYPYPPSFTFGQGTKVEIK	s⁻¹	0.00504
L3.PY/L3.KF/H3.AE: anti-BCMA antibody (antibody, V domains shown) VH: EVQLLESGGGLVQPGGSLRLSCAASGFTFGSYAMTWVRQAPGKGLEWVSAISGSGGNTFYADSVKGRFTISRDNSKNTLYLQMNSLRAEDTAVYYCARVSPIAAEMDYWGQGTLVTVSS VL: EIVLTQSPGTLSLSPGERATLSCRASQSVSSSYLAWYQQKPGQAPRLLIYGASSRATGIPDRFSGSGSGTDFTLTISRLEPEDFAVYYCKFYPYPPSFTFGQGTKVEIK	s⁻¹	0.00564
L3.PY/L3.KY/H3.YA: anti-BCMA antibody (antibody, V domains shown) VH: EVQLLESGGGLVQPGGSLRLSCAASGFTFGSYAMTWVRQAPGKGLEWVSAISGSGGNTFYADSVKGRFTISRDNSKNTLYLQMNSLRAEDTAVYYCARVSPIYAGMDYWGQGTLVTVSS VL: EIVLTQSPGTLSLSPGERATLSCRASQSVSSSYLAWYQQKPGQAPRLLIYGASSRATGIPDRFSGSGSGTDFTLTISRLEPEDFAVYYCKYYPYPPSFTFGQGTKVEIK	s⁻¹	0.00428
L3.PY/L3.KF/H2.YQ: anti-BCMA antibody (antibody, V domains shown) VH: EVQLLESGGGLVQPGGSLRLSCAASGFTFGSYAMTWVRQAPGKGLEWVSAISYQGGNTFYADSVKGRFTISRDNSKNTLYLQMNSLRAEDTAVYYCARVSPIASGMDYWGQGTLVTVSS VL: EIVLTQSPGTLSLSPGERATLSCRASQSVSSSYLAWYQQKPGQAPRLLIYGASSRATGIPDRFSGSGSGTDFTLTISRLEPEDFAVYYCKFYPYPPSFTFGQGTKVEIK	s⁻¹	0.00501
L3.PY/L3.KF/H3.YA: anti-BCMA antibody (antibody, V domains shown) VH: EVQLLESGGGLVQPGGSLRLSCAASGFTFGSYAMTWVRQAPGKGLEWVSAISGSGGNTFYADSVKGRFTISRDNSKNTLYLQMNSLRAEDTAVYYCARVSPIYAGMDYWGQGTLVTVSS VL: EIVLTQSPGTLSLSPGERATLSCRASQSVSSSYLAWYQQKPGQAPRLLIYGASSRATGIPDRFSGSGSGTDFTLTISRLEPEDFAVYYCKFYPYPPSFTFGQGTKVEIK	s⁻¹	0.00796
L3.PY/L3.KY/H2.HA: anti-BCMA antibody (antibody, V domains shown) VH: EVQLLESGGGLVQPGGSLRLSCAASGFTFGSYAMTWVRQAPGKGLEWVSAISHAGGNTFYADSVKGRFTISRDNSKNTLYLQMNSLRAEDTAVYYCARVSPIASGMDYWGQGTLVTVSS VL: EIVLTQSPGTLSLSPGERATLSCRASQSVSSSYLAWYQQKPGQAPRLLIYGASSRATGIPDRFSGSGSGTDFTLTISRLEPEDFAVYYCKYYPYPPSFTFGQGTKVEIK	s⁻¹	0.00318

Please turn your attention to the following entry.
Asked: Look up kd (1/s) cyBCMA @37° C. of L3.PY/L1.PS/H2.QL: anti-BCMA antibody (antibody, V domains shown) VH: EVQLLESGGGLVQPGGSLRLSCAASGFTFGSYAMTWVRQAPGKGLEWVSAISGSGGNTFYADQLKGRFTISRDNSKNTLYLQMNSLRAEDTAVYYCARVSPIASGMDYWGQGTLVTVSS VL: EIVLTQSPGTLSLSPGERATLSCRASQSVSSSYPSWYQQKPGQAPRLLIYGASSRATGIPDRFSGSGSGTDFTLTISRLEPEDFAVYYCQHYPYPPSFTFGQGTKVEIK and report it.
Given back: 0.000636
